src = ChEMBL document CHEMBL4038276

- measurement-target: Kappa-type opioid receptor (Rattus norvegicus) (UniProt P34975)
- Sequence (P34975 whole entry): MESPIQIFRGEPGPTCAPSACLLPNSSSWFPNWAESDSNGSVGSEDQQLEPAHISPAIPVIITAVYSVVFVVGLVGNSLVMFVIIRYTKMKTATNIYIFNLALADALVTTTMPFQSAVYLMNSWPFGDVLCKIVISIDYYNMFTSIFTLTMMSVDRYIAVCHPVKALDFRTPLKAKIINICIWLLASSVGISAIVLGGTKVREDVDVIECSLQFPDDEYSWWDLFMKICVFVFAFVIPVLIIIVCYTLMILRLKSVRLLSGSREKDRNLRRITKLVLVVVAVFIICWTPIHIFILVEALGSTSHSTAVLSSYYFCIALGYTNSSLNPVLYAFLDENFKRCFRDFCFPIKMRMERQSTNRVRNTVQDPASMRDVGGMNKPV
- run-description: Displacement of [3H]U-69,593 from kappa opioid receptor in rat brain at 100 nM after 60 mins by liquid scintillation counting method relative to control
Reported inhibition values for the following molecules.

Worked examples, 4 molecules total:
{"molecule": "C=CCN1CC[C@@]2(c3cccc(O)c3)CCC[C@@H]1[C@H]2O", "reported-result": "< 50%"}
{"molecule": "Oc1cccc([C@]23CCC[C@H]([C@H]2O)N(CCc2ccc(C(F)(F)F)cc2)CC3)c1", "reported-result": "> 50%"}
{"molecule": "Oc1cccc([C@]23CCC[C@H]([C@@H]2O)N(C[C@@H]2C[C@H]2c2ccccc2)CC3)c1", "reported-result": "< 50%"}
{"molecule": "O=[N+]([O-])c1ccc(CCN2CC[C@]3(c4cccc(O)c4)CCC[C@H]2[C@@H]3O)cc1", "reported-result": "< 50%"}

Could you share what inhibition was measured for Oc1cccc(C23CCCC(C2O)N(C/C=C/c2ccccc2)CC3)c1 (single isomer, unassigned) , tested on Kappa-type opioid receptor (Rattus norvegicus) (UniProt P34975)?
< 50%

* * *

pKi values, listed per item
- measurement-target: Delta-type opioid receptor (Rattus norvegicus)
- Sequence (P33533 whole entry): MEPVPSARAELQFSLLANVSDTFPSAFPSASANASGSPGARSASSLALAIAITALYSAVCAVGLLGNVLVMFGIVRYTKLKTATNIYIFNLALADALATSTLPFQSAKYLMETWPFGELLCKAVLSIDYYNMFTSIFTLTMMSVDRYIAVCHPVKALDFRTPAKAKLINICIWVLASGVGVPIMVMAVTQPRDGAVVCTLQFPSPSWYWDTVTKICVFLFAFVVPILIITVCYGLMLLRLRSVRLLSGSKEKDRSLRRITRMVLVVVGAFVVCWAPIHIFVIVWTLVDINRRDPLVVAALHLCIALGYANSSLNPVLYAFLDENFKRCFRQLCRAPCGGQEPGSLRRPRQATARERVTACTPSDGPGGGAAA
- run-description: Displacement of [3H]DADLE from delta opioid receptor in rat brain after 60 mins by liquid scintillation counting method
Answer as the number alone; pKi is minus log10 of concentration in mol/L.

{"molecule": "Oc1cccc([C@]23CCC[C@H]([C@H]2O)N(CCc2ccccc2)CC3)c1", "measurement-target": "Delta-type opioid receptor (Rattus norvegicus)", "pKi": 7.72}
{"molecule": "Oc1cccc([C@]23CCC[C@H]([C@H]2O)N(CCc2ccc(C(F)(F)F)cc2)CC3)c1", "measurement-target": "Delta-type opioid receptor (Rattus norvegicus)", "pKi": 6.79}

Recorded pKi of O=[N+]([O-])c1ccc(CCN2CC[C@@]3(c4cccc(O)c4)CCC[C@@H]2[C@H]3O)cc1 , please.
8.01

// pKi lookup, key: Oc1cccc(C23CCCC(C2O)N(C/C=C/c2ccccc2)CC3)c1 (single isomer, unassigned)
7.75

* * *

This listing pairs compounds with measured pEC50.
- measurement-target: Delta-type opioid receptor (Rattus norvegicus)
- run-description: Agonist activity at rat delta opioid receptor expressed in rat C6 cell membranes assessed as stimulation of [35S]GTPgammaS binding incubated for 1 hr by liquid scintillation counting method
Scale explanation: pEC50 corresponds to minus log10 of a concentration expressed in moles per litre.

Here is how some compounds turned out for pEC50.
{"compound": "O=[N+]([O-])c1ccc(CCN2CC[C@@]3(c4cccc(O)c4)CCC[C@@H]2[C@H]3O)cc1", "measurement-target": "Delta-type opioid receptor (Rattus norvegicus)", "pEC50": 6.20}
{"compound": "Oc1cccc(C23CCCC(C2O)N(C/C=C/c2ccccc2)CC3)c1 (single isomer, unassigned)", "measurement-target": "Delta-type opioid receptor (Rattus norvegicus)", "pEC50": 6.60}
{"compound": "Oc1cccc([C@]23CCC[C@H]([C@H]2O)N(CCc2ccccc2)CC3)c1", "measurement-target": "Delta-type opioid receptor (Rattus norvegicus)", "pEC50": 5.96}

Next compound, please.
// returns reported pEC50 for input Oc1cccc([C@]23CCC[C@H]([C@H]2O)N(CCc2ccc(C(F)(F)F)cc2)CC3)c1
6.05
